- Target or system: UniProt P32248
- Sequence (P32248 25-378): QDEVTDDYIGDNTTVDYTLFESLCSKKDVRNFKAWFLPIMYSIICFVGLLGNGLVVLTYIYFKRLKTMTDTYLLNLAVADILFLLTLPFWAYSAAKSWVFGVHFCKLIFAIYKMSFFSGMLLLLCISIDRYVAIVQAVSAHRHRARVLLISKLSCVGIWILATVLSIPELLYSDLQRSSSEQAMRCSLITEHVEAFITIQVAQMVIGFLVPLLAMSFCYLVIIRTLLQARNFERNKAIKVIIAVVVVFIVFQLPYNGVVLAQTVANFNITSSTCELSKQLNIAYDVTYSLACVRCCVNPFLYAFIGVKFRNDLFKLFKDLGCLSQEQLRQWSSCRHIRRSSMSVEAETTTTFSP
- Test method notes: Calcium flux on Chem-1 cells expressing the chemokine receptor (FLIPR TETRA), antagonist mode
- Cond: antagonist activity, reference agonist at AC80

Compound: Cc1ccc(C(Nc2c(Nc3cccc(C(=O)N(C)C)c3O)c(=O)c2=O)C2(C)CCCO2)o1 (single isomer, unassigned) [Example 1 (Enantiomer 2 of diastereoisomer 2)]
IC50 [µM]: 8.7

====

- Target or system: CXCR2 receptor (Homo sapiens (Human))
- Sequence (P25025 whole entry): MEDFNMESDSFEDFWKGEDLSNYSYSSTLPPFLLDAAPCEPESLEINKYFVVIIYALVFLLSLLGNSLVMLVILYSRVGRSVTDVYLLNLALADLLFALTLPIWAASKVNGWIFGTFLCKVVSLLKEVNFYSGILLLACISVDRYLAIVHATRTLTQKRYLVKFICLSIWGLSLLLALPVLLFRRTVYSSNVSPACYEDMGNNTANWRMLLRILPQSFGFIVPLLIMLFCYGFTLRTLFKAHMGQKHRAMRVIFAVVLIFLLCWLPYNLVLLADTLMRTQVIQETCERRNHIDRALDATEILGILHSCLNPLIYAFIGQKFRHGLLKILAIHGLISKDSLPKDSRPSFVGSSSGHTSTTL
- Test method notes: β-arrestin recruitment test, PathHunter HEK293-CXCR2 cells stimulated with CXCL8
- Format: cell-based
- Cond: inhibition of CXCL8 (10 nM) induced β-arrestin 2 recruitment; *9999 signifies not active
// boundary case: IC50 equal to 100 nM maps to condition not met; strictly smaller maps to condition met

Compound: Cc1ccc(C(Nc2c(Nc3cccc(C(=O)N(C)CC(F)(F)F)c3O)c(=O)c2=O)C2CCCS2)o1 (single isomer, unassigned) [Example 8 (Diastereoisomer 2)]
Label class: condition met
//
Compound: CN(C)C(=O)c1cccc(Nc2c(NC(c3ccccc3)C3CCCO3)c(=O)c2=O)c1O (centres unmarked)
Label class: condition not met
//
Compound: Cc1ccc(C(Nc2c(Nc3cccc(C(=O)N(C)CC(F)(F)F)c3O)c(=O)c2=O)C2CCCS2)o1 (single isomer, unassigned) [Example 8 (Diastereoisomer 1)]
Label class: condition not met
//
Compound: Cc1ccc(C(Nc2c(Nc3cccc(C(=O)N(C)C)c3O)c(=O)c2=O)[C@@H]2COC(C)(C)O2)o1 (single isomer, unassigned) [Example 14 (Diastereoisomer 1)]
Label class: condition not met
//
Compound: Cc1ccc(C(Nc2c(Nc3cccc(C(=O)N(C)C)c3O)c(=O)c2=O)C2CCCS2)o1 (single isomer, unassigned) [Example 2 (Enantiomer 2 of diastereoisomer 1)]
Label class: condition met
//
Compound: Cc1ccc(C(Nc2c(Nc3cccc(C(=O)N(C)C)c3O)c(=O)c2=O)C2CCCS2)o1 (single isomer, unassigned) [Example 2 (Enantiomer 1 of diastereoisomer 1)]
Label class: condition not met
//
Compound: Cc1ccc([C@H](Nc2c(Nc3cccc(C(=O)N(C)CC(F)(F)F)c3O)c(=O)c2=O)C2CCCS2)o1 (single isomer, unassigned; (-))
Label class: condition met
//
Compound: CCOC(=O)[C@@H]1CCCN1C(=O)c1cccc(Nc2c(NC(c3ccc(C)o3)C3CCCS3)c(=O)c2=O)c1F (some centres unmarked)
Label class: condition not met
//
Compound: Cc1ccc(C(Nc2c(Nc3cccc(C(=O)N(C)C)c3O)c(=O)c2=O)C2CCCS2)o1 (single isomer, unassigned) [Example 2 (diastereoisomer 1)]
Label class: condition not met
//
Compound: Cc1ccc(C(Nc2c(Nc3cccc(C(=O)N(C)C)c3O)c(=O)c2=O)C2(C)CCCO2)o1 (single isomer, unassigned) [Example 1 (diastereoisomer 1)]
Label class: condition met
//
Compound: Cc1ccc(C(Nc2c(Nc3cccc(C(=O)N(C)C)c3O)c(=O)c2=O)[C@@H]2CCCO2)o1 (stereo in doubt)
Label class: condition met
//
Compound: COC(=O)CN(C)C(=O)c1cccc(Nc2c(N[C@@H](c3ccc(C)o3)C3CCCS3)c(=O)c2=O)c1O (single isomer, unassigned)
Label class: condition met
//
Compound: Cc1ccc(C(Nc2c(Nc3cccc(C(=O)N(C)C)c3O)c(=O)c2=O)C2CCCS2)o1 (single isomer, unassigned) [2 (diastereoisomer 2)]
Label class: condition met
//
Compound: Cc1ccc(C(Nc2c(Nc3cccc(C(=O)N(C)C)c3O)c(=O)c2=O)C2(C)CCCO2)o1 (single isomer, unassigned) [Example 1 (Enantiomer 2 of diastereoisomer 2)]
Label class: condition met
